Data provenance is paper PMC2933382.

# Experimental system: AeSCP-2 F9W/W44F mutant (Aedes aegypti, UniProt Q86PR3, F9W/W44F)
# Experiment summary: NBD-cholesterol binding to recombinant AeSCP-2 mutant
# Run conditions: F9W/W44F; 0.5 µM NBD-cholesterol, protein 0.01 to 10 µM; mean (standard deviation)
pKd: −log10 of the molar value.

Mol	pKd
C[C@H](CNc1ccc([N+](=O)[O-])c2nonc12)[C@H]1CC[C@H]2[C@@H]3CC=C4C[C@@H](O)CC[C@]4(C)[C@H]3CC[C@]12C	6.04

* * *

Reported EC50 values follow for various compounds
# Experimental system: AeSCP-2 Y30A mutant (Aedes aegypti, UniProt Q86PR3, Y30A)
# Experiment summary: Ligand competition assay with NBD-cholesterol

Compound	Units symbol	EC50
CC[C@H](CC[C@@H](C)[C@H]1CC[C@H]2[C@@H]3CC=C4C[C@@H](O)CC[C@]4(C)[C@H]3CC[C@]12C)C(C)C [β-sitosterol]	nM	96
CCCCCCCCCCCCCCCC(=O)O [palmitic acid]	nM	100
CC(C)CCC[C@@H](C)[C@H]1CC[C@H]2[C@@H]3CC=C4C[C@@H](O)CC[C@]4(C)[C@H]3CC[C@]12C [cholesterol]	nM	282

* * *

# Experimental system: AeSCP-2 W44E mutant (Aedes aegypti, UniProt Q86PR3, W44E)
# Experiment summary: Ligand competition assay with NBD-cholesterol
Reported EC50 values follow for various compounds

Mol	EC50
CC[C@H](CC[C@@H](C)[C@H]1CC[C@H]2[C@@H]3CC=C4C[C@@H](O)CC[C@]4(C)[C@H]3CC[C@]12C)C(C)C	42 nM
CCCCCCCCCCCCCCCC(=O)O	75 nM

* * *

# Experimental system: AeSCP-2 F32W mutant (Aedes aegypti, UniProt Q86PR3, F32W)
# Experiment summary: NBD-cholesterol binding to recombinant AeSCP-2 mutant
# Run conditions: 0.5 µM NBD-cholesterol, protein 0.01 to 10 µM, mean (standard deviation)

Mol	Units symbol	Kd
C[C@H](CNc1ccc([N+](=O)[O-])c2nonc12)[C@H]1CC[C@H]2[C@@H]3CC=C4C[C@@H](O)CC[C@]4(C)[C@H]3CC[C@]12C	µM	4.94

* * *

# Experimental system: AeSCP-2 Y30A mutant (Aedes aegypti, UniProt Q86PR3, Y30A)
# Experiment summary: NBD-cholesterol binding to recombinant AeSCP-2 mutant
# Run conditions: Y30A; 0.5 µM NBD-cholesterol, protein 0.01 to 10 µM; mean (standard deviation)
Value kind: Kd (µM)

Mol	Value kind	Units symbol	Observed result
C[C@H](CNc1ccc([N+](=O)[O-])c2nonc12)[C@H]1CC[C@H]2[C@@H]3CC=C4C[C@@H](O)CC[C@]4(C)[C@H]3CC[C@]12C	Kd	µM	0.25

* * *

# Experimental system: AeSCP-2 M90L mutant (Aedes aegypti, UniProt Q86PR3, M90L)
# Experiment summary: Ligand competition assay with NBD-cholesterol
pEC50: −log10 of the molar value.

Mol	pEC50
CC[C@H](CC[C@@H](C)[C@H]1CC[C@H]2[C@@H]3CC=C4C[C@@H](O)CC[C@]4(C)[C@H]3CC[C@]12C)C(C)C	7.34
CCCCCCCCCCCCCCCC(=O)O	6.90

* * *

# Experimental system: AeSCP-2 F105W mutant (Aedes aegypti, UniProt Q86PR3, F105W)
# Experiment summary: NBD-cholesterol binding to recombinant AeSCP-2 mutant
# Run conditions: 0.5 µM NBD-cholesterol, protein 0.01 to 10 µM, mean (standard deviation)
Value kind: Kd (nM)

Mol	Experimental system	Observed result
C[C@H](CNc1ccc([N+](=O)[O-])c2nonc12)[C@H]1CC[C@H]2[C@@H]3CC=C4C[C@@H](O)CC[C@]4(C)[C@H]3CC[C@]12C	AeSCP-2 F105W mutant (Aedes aegypti, UniProt Q86PR3, F105W)	1320
